- Test system: 777334-354-R2-J4-PDC tumor spheroids with HUVEC/MSC, viability;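 note: spheroids exposed to compounds for 7 days before readout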
- assayText: Anticancer human tumor 777334-354-R2-J4-PDC patient-derived pancreatic adenocarcinoma cell line growth inhibition [GQUAD]
- conditionLabel: second compound 0.0316 µM; first compound 0.1 µM; active compounds read low
readoutLabel: viability, T/C (%)

Cc1cccc(N(C)C(=O)C2C(O)CCN2c2nc(C)cc(C(F)(F)F)c2C#N)c1 (stereo not given) + Cc1cnc(CNC(=O)c2c(=O)c3ccc(N4CCCN(C)CC4)nc3n3c2sc2ccccc23)cn1    91.3
C=CC(=O)N1CCN(c2nc(=O)n(-c3c(C)ccnc3C(C)C)c3nc(-c4c(O)cccc4F)c(F)cc23)C(C)C1 (stereo not given) + Cc1cnc(CNC(=O)c2c(=O)c3ccc(N4CCCN(C)CC4)nc3n3c2sc2ccccc23)cn1    75.7
O=C(NO)c1cnc(N2CCN(S(=O)(=O)c3ccc4ccccc4c3)CC2)nc1 + Cc1[nH]c2ccc(F)cc2c1-c1nc2c3cccnc3c3ncccc3c2[nH]1    91.6
O=C(c1cc(Cc2n[nH]c(=O)c3ccccc23)ccc1F)N1CCN(C(=O)C2CC2)CC1 + CN(C)c1ccc(Nc2c3ccc(NC(=O)CCN4CCCC4)cc3nc3cc(NC(=O)CCN4CCCC4)ccc23)cc1    104
COc1cccc2c1C(=O)c1c(O)c3c(c(O)c1C2=O)CC(O)(C(=O)CO)CC3OC1CC(N)C(O)C(C)O1 (stereo not given) + Cc1cnc(CNC(=O)c2c(=O)c3ccc(N4CCCN(C)CC4)nc3n3c2sc2ccccc23)cn1    87.2
